From: patent US7015211B2

System: esterase, rat hepatic microsomes
Experiment: Esterase hydrolysis in rat hepatic microsomes
Type: in vitro ADME
Experimental: Esterase. Esterase activity was measured in rat hepatic microsomes essentially using the conditions described^41 with some minor modifications. Briefly, rat hepatic microsomes were incubated with 50 μM E2-alkyl ester. […] The mixture was centrifuged and analyzed for the esterase-hydrolysis product (the corresponding E2-carboxylic acid) by reversed phase HPLC: E16-1,0; E15-1,0; E15-2,0; and E15-3,0 by HPLC with system H-29. […]
Mark true for reported Esterase (RHA) of 70 or greater; mark false for anything smaller.

{"Chem Smiles": "COC(=O)CC[C@H]1C[C@H](O)[C@@]2(C)CC[C@@H]3c4ccc(O)cc4CC[C@H]3[C@H]12", "Study System": "esterase, rat hepatic microsomes", "Assigned Label": "true"}
{"Chem Smiles": "CCCCOC(=O)[C@H]1C[C@H](O)[C@@]2(C)CC[C@@H]3c4ccc(O)cc4CC[C@H]3[C@H]12", "Study System": "esterase, rat hepatic microsomes", "Assigned Label": "false"}
{"Chem Smiles": "CC(C)OC(=O)[C@H]1C[C@H](O)[C@@]2(C)CC[C@@H]3c4ccc(O)cc4CC[C@H]3[C@H]12", "Study System": "esterase, rat hepatic microsomes", "Assigned Label": "false"}
{"Chem Smiles": "CCOC(=O)[C@H]1C[C@H](O)[C@@]2(C)CC[C@@H]3c4ccc(O)cc4CC[C@H]3[C@H]12", "Study System": "esterase, rat hepatic microsomes", "Assigned Label": "false"}
{"Chem Smiles": "COC(=O)C[C@H]1C[C@H](O)[C@@]2(C)CC[C@@H]3c4ccc(O)cc4CC[C@H]3[C@H]12", "Study System": "esterase, rat hepatic microsomes", "Assigned Label": "false"}
{"Chem Smiles": "CCOC(=O)CC[C@H]1C[C@H](O)[C@@]2(C)CC[C@@H]3c4ccc(O)cc4CC[C@H]3[C@H]12", "Study System": "esterase, rat hepatic microsomes", "Assigned Label": "true"}
